# Protocol Notes: Rat pharmacokinetic (PK) assay
# Format: in vivo, Sprague-Dawley rat
# Protocol Conditions: male, Sprague-Dawley, plasma; Rat iv, dose 5 mg/kg (table)
Outcome Measure: C0

Input line: So what's the measured C0 for this one? O=C(O)c1ccc(C2(NC(=O)c3c(Cl)sc4ccn(Cc5ccc(C(F)(F)F)cc5)c34)CC2)cc1
Output line: 8380 ng/mL

====

# Protocol Notes: Liver microsomal stability, human
# Assay type: in vitro ADME
# Protocol Conditions: pooled human liver microsomes, read-out: In vitro CLint
Catalogue of microsomal CLint readings, one per entry.
Please state the figure in µL/min/mg; there is no need to write the unit.

Answered examples (2):
{"columns": ["Molecule", "Experimental Value"],
 "data": [
  ["O=C(O)c1ccc(C2(NC(=O)c3c(Cl)sc4ccn(Cc5ccc(C(F)(F)F)cc5)c34)CC2)cc1 [Example 1]", 11.4],
  ["COc1sc2ccn(Cc3ccc(C(F)(F)F)cc3)c2c1C(=O)NC1(c2ccc(C(=O)O)cc2)CC1 [Example 4]", 3.24]
]}

Input line: So what's the measured microsomal CLint for this one? O=C(O)c1ccc(C2(NC(=O)c3c(F)sc4ccn(Cc5ccc(C(F)(F)F)cc5)c34)CC2)cc1 [Example 3]
Output line: 4.03
